System: Yellow Fever Mosquito (Aedes aegypti, AEDSAE)
Type: in vivo
RECORDED_CONDITIONS: about 1 day-old larvae, 3 days, room temperature, scored on mortality

- MOLECULE: "C[C@H](C[S+]([O-])CC(F)(F)F)NC(=O)c1ccc(/C(F)=C/C(c2cc(Cl)cc(Br)c2)C(F)(F)F)cc1C(F)(F)F (stereo partly shown)"
  YFM % Control (or Mortality) rating: "A (80-100)"
- MOLECULE: "C[C@H](CSCC(F)(F)F)NC(=O)c1ccc(/C(F)=C/C(c2cc(Cl)cc(Cl)c2)C(F)(F)F)cc1C(F)(F)F (stereo partly shown)"
  YFM % Control (or Mortality) rating: "A (80-100)"
- MOLECULE: "CCS(=O)(=O)C[C@@H](C)NC(=O)c1ccc(/C(F)=C/C(c2cc(Br)c(Cl)c(Br)c2)C(F)(F)F)cc1C(F)(F)F (stereo partly shown) [F56]"
  YFM % Control (or Mortality) rating: "A (80-100)"

----------
System: Beet Armyworm (Spodoptera exigua, LAPHEG)
MEASUREMENT_NOTES: Bioassay on Beet Armyworm (BAW), 128-well diet tray assay
Format: in vivo
RECORDED_CONDITIONS: 0.05 μg/cm^2, Table CD2 comparative data, read-out: Percent control (or mortality) BAW
Experimental: Example A: Bioassays on Beet Armyworm (Spodoptera Exigua, LAPHEG) (“BAW”), Corn Earworm (Helicoverpa zea, HELIZE) (“CEW”), and Cabbage Looper (Trichoplusia ni, TRIPNI) (“CL”) Certain molecules disclosed in this document were tested against BAW, CEW, and CL using procedures described in the following examples. […] Bioassays on BAW were conducted using a 128-well diet tray assay. […] Percent mortality was recorded for the larvae in each well; activity in the eight wells was then averaged. […]

- COMPOUND: "C[C@H](CSCC(F)(F)F)NC(=O)c1ccc(/C(F)=C/C(c2cc(Cl)c(Cl)c(Cl)c2)C(C)(F)F)cc1 (stereo partly shown) [FC2]"
  mortality at 0.05 µg/cm2: "0%"
- COMPOUND: "Cc1cc(/C(F)=C/C(c2cc(Cl)c(Cl)c(Cl)c2)C(F)(F)F)ccc1C(=O)N[C@H](C)CSCC(F)(F)F (stereo partly shown) [F4]"
  mortality at 0.05 µg/cm2: "67%"
- COMPOUND: "C[C@H](CSCC(F)(F)F)NC(=O)c1ccc(/C(F)=C/C(c2cc(Cl)c(Cl)c(Cl)c2)C(F)(F)F)cc1Br (stereo partly shown) [F7]"
  mortality at 0.05 µg/cm2: "0%"
- COMPOUND: "C[C@H](CSCC(F)(F)F)NC(=O)c1ccc(/C(F)=C/C(c2cc(Cl)c(Cl)c(Cl)c2)C(F)(F)F)cc1Cl (stereo partly shown) [F10]"
  mortality at 0.05 µg/cm2: "0%"

----------
System: Green Peach Aphid (Myzus persicae, MYZUPE)
MEASUREMENT_NOTES: Bioassay on Green Peach Aphid (GPA), foliar spray on infested cabbage seedlings
Format: in vivo
RECORDED_CONDITIONS: 72 h, 200 ppm foliar spray, three days, Abbott corrected % control, read-out: GPA % Control (or Mortality) rating
METRIC: mortality at 200 ppm

- COMPOUND: "CCS(=O)(=O)C[C@@H](C)NC(=O)c1ccc(/C(F)=C/C(c2cc(Br)cc(Br)c2)C(F)(F)F)cc1C(F)(F)F (stereo partly drawn)"
  METRIC: "mortality at 200 ppm"
  REPORTED_VALUE: "0 to 80%"
- COMPOUND: "C[C@H](CS(=O)(=O)CC(F)(F)F)NC(=O)c1ccc(/C(F)=C/C(c2cc(Cl)c(Cl)c(Cl)c2)C(F)(F)F)cc1C(F)(F)F (stereo partly drawn)"
  METRIC: "mortality at 200 ppm"
  REPORTED_VALUE: "0 to 80%"
- COMPOUND: "C[C@H](CSCC(F)(F)F)NC(=O)c1ccc(/C(F)=C/C(c2cc(Cl)c(Cl)c(Cl)c2)C(F)(F)F)cc1C(F)(F)F (stereo partly drawn)"
  METRIC: "mortality at 200 ppm"
  REPORTED_VALUE: "0 to 80%"
- COMPOUND: "CCS(=O)(=O)C[C@@H](C)NC(=O)c1ccc(/C(F)=C/C(c2ccc(Cl)c(Cl)c2)C(F)(F)F)cc1C(F)(F)F (stereo partly drawn)"
  METRIC: "mortality at 200 ppm"
  REPORTED_VALUE: "0 to 80%"
- COMPOUND: "CCS(=O)(=O)C[C@@H](C)NC(=O)c1ccc(/C(F)=C/C(c2cc(Cl)c(F)c(Cl)c2)C(F)(F)F)cc1C(F)(F)F (stereo partly drawn)"
  METRIC: "mortality at 200 ppm"
  REPORTED_VALUE: "80 to 100%"
- COMPOUND: "C[C@H](CS(=O)(=O)CC(F)(F)F)NC(=O)c1ccc(/C(F)=C/C(c2cc(Br)cc(Br)c2)C(F)(F)F)cc1C(F)(F)F (stereo partly drawn)"
  METRIC: "mortality at 200 ppm"
  REPORTED_VALUE: "0 to 80%"
- COMPOUND: "C[C@H](C[S+]([O-])CCC#N)NC(=O)c1ccc(/C(F)=C/C(c2cc(Cl)c(Cl)c(Cl)c2)C(F)(F)F)cc1C(F)(F)F (stereo partly drawn)"
  METRIC: "mortality at 200 ppm"
  REPORTED_VALUE: "0 to 80%"
- COMPOUND: "C[C@H](C[S+]([O-])CC(F)(F)F)NC(=O)c1ccc(/C(F)=C/C(c2cc(Cl)cc(Br)c2)C(F)(F)F)cc1C(F)(F)F (stereo partly drawn)"
  METRIC: "mortality at 200 ppm"
  REPORTED_VALUE: "0 to 80%"
- COMPOUND: "C[C@H](CS(=O)(=O)CCC#N)NC(=O)c1ccc(/C(F)=C/C(c2cc(Cl)c(Cl)c(Cl)c2)C(F)(F)F)cc1C(F)(F)F (stereo partly drawn)"
  METRIC: "mortality at 200 ppm"
  REPORTED_VALUE: "0%"
